Parameter: pKi. Scope: all listed entries.
target: PCSK9 (Homo sapiens); construct: Biotinylated PCSK9 was obtained commercially; purchased; test: PCSK9 Alexa FRET Plus TR-FRET assay (displacement of AlexaFluor647 tagged cyclic peptide Reagent B); assay type: binding; settings: Ki Plus, 0.5 nM biotinylated PCSK9, 960 nM AF cyclic peptide Reagent B; Ki calculated from IC50 and KD of AF peptide
Remember, pKi is on a log scale: it is -log10 of the molar concentration.

Worked examples, 3 compounds total:
{"Compound": "COc1ccc(C[C@@H]2NC(=O)[C@H]([C@@H](C)O)NC(=O)[C@@H]3[C@@H]4CCN3C(=O)[C@@H]3Cc5cn(c6ccc(F)cc56)CCCCCCN(Cc5ccc(cc5)CCNC(=O)[C@]5(C)CCCN5C2=O)C(=O)CCC(=O)N[C@@H](C)C(=O)N[C@H](CNC(=O)CCOCCOCCCN(C)C)C(=O)N[C@@H](Cc2cccc(c2)CNC(=O)CO4)C(=O)N3)cc1 [Ex-50]", "pKi": 10.98}
{"Compound": "COc1ccc(C[C@@H]2NC(=O)[C@H]([C@@H](C)O)NC(=O)[C@@H]3[C@@H]4CCN3C(=O)[C@@H]3Cc5cn(c6ccc(F)cc56)CCCCOc5cc(cc(c5)CNC(=O)CCC(=O)N[C@@H](C)C(=O)N[C@H](CNC(=O)CCCCC[N+](C)(C)C)C(=O)N[C@@H](Cc5cccc(c5)CNC(=O)CO4)C(=O)N3)CCNC(=O)[C@]3(C)CCCN3C2=O)cc1 [Ex-40]", "pKi": 9.51}
{"Compound": "COc1ccc(C[C@@H]2NC(=O)[C@H]([C@@H](C)O)NC(=O)[C@@H]3[C@@H]4CCN3C(=O)[C@@H]3Cc5cn(c6ccc(F)cc56)CCCCCCN(Cc5ccc(cc5)CCNC(=O)[C@]5(C)CCCN5C2=O)C(=O)CCC(=O)N[C@@H](C)C(=O)N[C@H](CNC(=O)CCOCCCCC[N+](C)(C)C)C(=O)N[C@@H](Cc2cccc(c2)CNC(=O)CO4)C(=O)N3)cc1 [Ex-59]", "pKi": 11.10}

With those in mind, consider the next compound.
// pKi lookup, key: COc1ccc(C[C@@H]2NC(=O)[C@H]([C@@H](C)O)NC(=O)[C@@H]3[C@@H]4CCN3C(=O)[C@@H]3Cc5cn(c6ccc(F)cc56)CCCCCN(CCOc5ccc(cc5)CCNC(=O)[C@]5(C)CCCN5C2=O)C(=O)CCC(=O)N[C@@H](C)C(=O)N[C@H](CNC(=O)CCCCC[N+](C)(C)C)C(=O)N[C@@H](Cc2cccc(c2)CNC(=O)CO4)C(=O)N3)cc1 [Ex-41]
11.16

###

biological target: PCSK9 (Homo sapiens, UniProt Q8NBP7); construct: Biotinylated PCSK9 was obtained commercially; purchased; test: PCSK9 Alexa FRET Ultra TR-FRET assay (displacement of AlexaFluor647 tagged cyclic peptide); assay type: binding; conditions: Ki Ultra, 0.5 nM biotinylated PCSK9, 960 nM AF cyclic peptide; Ki calculated from IC50 and KD of AF peptide
Sequence (Q8NBP7 153-692): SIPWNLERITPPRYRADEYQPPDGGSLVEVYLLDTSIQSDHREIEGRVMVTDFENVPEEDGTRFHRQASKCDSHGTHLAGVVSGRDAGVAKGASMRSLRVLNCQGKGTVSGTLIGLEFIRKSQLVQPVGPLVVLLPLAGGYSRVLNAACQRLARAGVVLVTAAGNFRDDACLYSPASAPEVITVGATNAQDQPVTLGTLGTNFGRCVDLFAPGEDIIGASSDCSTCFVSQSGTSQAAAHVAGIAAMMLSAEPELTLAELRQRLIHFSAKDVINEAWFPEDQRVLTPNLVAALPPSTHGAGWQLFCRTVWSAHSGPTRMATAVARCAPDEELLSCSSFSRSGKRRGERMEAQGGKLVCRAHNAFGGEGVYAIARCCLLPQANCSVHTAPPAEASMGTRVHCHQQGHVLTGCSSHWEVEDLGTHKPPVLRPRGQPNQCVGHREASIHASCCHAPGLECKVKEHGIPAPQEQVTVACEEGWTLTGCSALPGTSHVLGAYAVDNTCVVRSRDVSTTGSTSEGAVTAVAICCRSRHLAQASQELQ
Parameter: Ki. Scope: all listed entries.
The answer is to be given in pM; state only the numeric part.

Worked examples, 3 compounds total:
{"Sample Smiles": "COc1ccc(C[C@@H]2NC(=O)[C@H]([C@@H](C)O)NC(=O)[C@@H]3[C@@H]4CCN3C(=O)[C@@H]3Cc5cn(c6ccc(F)cc56)C/C=C/CCCN(Cc5ccc(cc5)CCNC(=O)[C@]5(C)CCCN5C2=O)C(=O)CCC(=O)N[C@@H](C)C(=O)N[C@H](CNC(=O)CCOCCOCC[N+](C)(C)C)C(=O)N[C@@H](Cc2cccc(c2)CNC(=O)CO4)C(=O)N3)cc1", "System Under Test": "PCSK9 (Homo sapiens, UniProt Q8NBP7)", "Result Units": "pM", "Reported Measurement": 3.59}
{"Sample Smiles": "COc1ccc(C[C@@H]2NC(=O)[C@H]([C@@H](C)O)NC(=O)[C@@H]3[C@@H]4CCN3C(=O)[C@@H]3Cc5cn(c6ccc(F)cc56)CCCCCCN(Cc5ccc(cc5)CCNC(=O)[C@]5(C)CCCN5C2=O)C(=O)CCC(=O)N[C@@H](C)C(=O)N[C@H](CN)C(=O)N[C@@H](Cc2cccc(c2)CNC(=O)CO4)C(=O)N3)cc1", "System Under Test": "PCSK9 (Homo sapiens, UniProt Q8NBP7)", "Result Units": "pM", "Reported Measurement": 4.6}
{"Sample Smiles": "COc1ccc(C[C@@H]2NC(=O)[C@H]([C@@H](C)O)NC(=O)[C@@H]3[C@@H]4CCN3C(=O)[C@@H]3Cc5cn(c6ccc(F)cc56)CCCCCN(CCOc5ccc(cc5)CCNC(=O)[C@]5(C)CCCN5C2=O)C(=O)CCC(=O)N[C@@H](C)C(=O)N[C@H](CNC(=O)CCCCC[N+](C)(C)C)C(=O)N[C@@H](Cc2cccc(c2)CNC(=O)CO4)C(=O)N3)cc1", "System Under Test": "PCSK9 (Homo sapiens, UniProt Q8NBP7)", "Result Units": "pM", "Reported Measurement": 6.28}

Query for PCSK9 (Homo sapiens, UniProt Q8NBP7): what Ki does the record show for COc1ccc(C[C@@H]2NC(=O)[C@H]([C@@H](C)O)NC(=O)[C@@H]3[C@@H]4CCN3C(=O)[C@@H]3Cc5cn(c6ccc(F)cc56)CCCCOc5cc(ccc5CNC(=O)CCC(=O)N[C@@H](C)C(=O)N[C@H](CNC(=O)CCOCCOCC[N+](C)(C)C)C(=O)N[C@@H](Cc5cccc(c5)CNC(=O)CO4)C(=O)N3)CCNC(=O)[C@]3(C)CCCN3C2=O)cc1 ?
238

Taken from patent US12209145B2.
